Molecular target: Purified recombinant ADAMTS-7 (rat prodomain/human catalytic domain, SEQ ID No. 01 or 02) (Homo sapiens, UniProt Q9UKP4)
Construct: rat ADAMTS-7 signal peptide + prodomain (rat 1-217, Q1EHB3) (N); 2xStrep tag (C); 6xHis tag (C); made in house; host or cells: Expi293 cells
Sequence (Q9UKP4 237-537): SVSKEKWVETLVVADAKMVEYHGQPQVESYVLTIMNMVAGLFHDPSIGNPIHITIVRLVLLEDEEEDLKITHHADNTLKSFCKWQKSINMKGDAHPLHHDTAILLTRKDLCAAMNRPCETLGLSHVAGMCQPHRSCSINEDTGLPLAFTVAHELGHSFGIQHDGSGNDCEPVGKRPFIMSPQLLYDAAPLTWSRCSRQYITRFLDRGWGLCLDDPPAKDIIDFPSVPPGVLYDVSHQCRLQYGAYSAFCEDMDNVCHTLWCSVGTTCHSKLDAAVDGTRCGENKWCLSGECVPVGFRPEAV
Experiment: Assay for ADAMTS-7 enzymatic activity (FRET substrate cleavage)
Format: biochemical
Details: FRET substrate SEQ ID No. 11, 120 min at 32° C.; read-out: ADAMTS7-IC50
pIC50: −log10 of the molar value.
Please note: y applies when pIC50 is 8 or greater, and n applies otherwise.

{"compound": "Cn1ccnc1C1(CNC(=O)c2cnn(-c3ccccc3)n2)NC(=O)NC1=O (stereo not shown) [Example 142]", "class-label": "y"}

q: Reported pIC50 reaches at least 8 for O=C1NC(=O)C(CNC(=O)c2cnn(-c3ccc(F)cc3)n2)(C2CCOCC2)N1 (single isomer, unassigned; ent-2) [Example 81] ?
a: n

q: Threshold query (pIC50 >= 8) on `O=C1NC(=O)[C@](CNC(=O)c2cnn(-c3ccc(Cl)cc3F)n2)(C2CC2)N1`
a: n

q: Hi team, for O=C1NC(=O)C(CNC(=O)c2cnn(-c3ccc(Cl)c(F)c3)n2)(c2nccs2)N1 (single isomer, unassigned; ent-2) [Example 110] , is the recorded pIC50 at or above 8?
a: y

q: Identify whether the reported pIC50 of the following compound is 8 or greater: Cn1ccnc1C1(CNC(=O)c2cnn(-c3ccc(F)cc3)n2)NC(=O)NC1=O (racemic) [Example 141]
a: y

q: For this compound, is measured pIC50 8 or higher? O=C1NC(=O)C(CNC(=O)c2cnn(-c3ccccc3)n2)(C2CCCOC2)N1 (single isomer, unassigned; dia1) [Example 84]
a: n
